# maps each entry to its CC50
Test system: KB
Assay: Cytotoxicity against human KB cells by alamar blue assay
Assay type: functional, cell-based
Conditions: read-out: TD50 (the source's name)
Express your answer in µM, writing the number without its unit.

Here's what some known entries look like.
> print(dat)
                                smiles.repr  measurement.type  reading
1  COc1cc([C@@H]2c3cc4c(cc3[C@H](O)[C@H]3COC(=O)[C@H]23)OCO4)cc(OC)c1OC              CC50     49.6
2  COc1c(C)c(CNCCNc2ccnc3cc(Cl)ccc23)c(OC)c2ccccc12              CC50      5.1
3  CCN(CC)Cc1cc(Nc2ccnc3cc(Cl)ccc23)ccc1OCc1c(C(F)(F)F)c(OC)c2ccccc2c1OC              CC50       15
4  COc1c(CN(CCNc2ccnc3cc(Cl)ccc23)C(C)C)c(C(F)(F)F)c(OC)c2ccccc12              CC50     35.4
5              CC(C)NCCCNc1ccnc2cc(Cl)ccc12              CC50     47.9

Req: Identify measured CC50 associated with `CC1=C(CCCCCC(=O)NCCNc2ccnc3cc(Cl)ccc23)C(=O)c2ccccc2C1=O`
Resp: 22.2

Req: Identify measured CC50 associated with `CC1=C(Cc2ccc(CC(=O)N(CCNc3ccnc4cc(Cl)ccc34)C(C)C)cc2)C(=O)c2ccccc2C1=O`
Resp: 318

Req: Identify measured CC50 associated with `Clc1ccc2c(N3CC3)ccnc2c1`
Resp: 102

Req: Identify measured CC50 associated with `CC(C)NCCNc1ccnc2cc(Cl)ccc12`
Resp: 89.8

---

# maps each entry to its log10 of CC50
Tested on: KB
Test: Cytotoxicity against human KB cells by alamar blue assay
Format: functional, cell-based
Conditions: read-out: TD50 (the source's name)
For clarity, the numbers are log10 values of CC50 expressed in µM.

Here's what some known entries look like.
> print(dat)
                                   molecule  reading
1           CC(C)(C)CNCCNc1ccnc2cc(Cl)ccc12     1.79
2  COc1c(CN(CCNc2ccnc3cc(Cl)ccc23)CC(C)C)c(C(F)(F)F)c(OC)c2ccccc12     1.08
3  COc1cc(CNCCNc2ccnc3cc(Cl)ccc23)c(OC)c2ccccc12     0.58
4  CC(=O)Nc1ccc(O)c(CN(CCCNc2ccnc3cc(Cl)ccc23)C(C)C)c1     2.26
5                    NCCNc1ccnc2cc(Cl)ccc12     1.70

Req: Identify measured log10 of CC50 associated with `CC(C)(C)NCCNc1ccnc2cc(Cl)ccc12`
Resp: 2.16

Req: Identify measured log10 of CC50 associated with `COc1c(C)c(Cc2ccc(CC(=O)N(CCNc3ccnc4cc(Cl)ccc34)C(C)C)cc2)c(OC)c2ccccc12`
Resp: 0.23

Req: Identify measured log10 of CC50 associated with `COc1c(CN(CCNc2ccnc3cc(Cl)ccc23)CC(C)(C)C)c(C(F)(F)F)c(OC)c2ccccc12`
Resp: 1.08

Req: Identify measured log10 of CC50 associated with `COc1cc(CN(CCNc2ccnc3cc(Cl)ccc23)CC(C)C)c(OC)c2ccccc12`
Resp: 1.64

Req: Identify measured log10 of CC50 associated with `COc1c(C)c(CN(CCNc2ccnc3cc(Cl)ccc23)CC(C)C)c(OC)c2ccccc12`
Resp: 1.49

Req: Identify measured log10 of CC50 associated with `COc1cc(CN(CCNc2ccnc3cc(Cl)ccc23)CC(C)(C)C)c(OC)c2ccccc12`
Resp: 0.94

Req: Identify measured log10 of CC50 associated with `COc1c(CNCCNc2ccnc3cc(Cl)ccc23)c(C(F)(F)F)c(OC)c2ccccc12`
Resp: 1.45

Req: Identify measured log10 of CC50 associated with `CC(C)(C)NC(=O)CNc1ccnc2cc(Cl)ccc12`
Resp: 2.29

Req: Identify measured log10 of CC50 associated with `Clc1ccc2c(NCCNCC3CC3)ccnc2c1`
Resp: 1.86

Req: Identify measured log10 of CC50 associated with `COc1c(C)c(CN(CCNc2ccnc3cc(Cl)ccc23)C(C)C)c(OC)c2ccccc12`
Resp: 1.93

Req: Identify measured log10 of CC50 associated with `CC1=C(CCCCCC(=O)N(CCNc2ccnc3cc(Cl)ccc23)C(C)C)C(=O)c2ccccc2C1=O`
Resp: 1.57
